ASSAYED SYSTEM: human Nav1.8 channels (Homo sapiens, UniProt Q9Y5Y9)
Construct: expressed in transfected cells
Sequence (Q9Y5Y9 whole entry): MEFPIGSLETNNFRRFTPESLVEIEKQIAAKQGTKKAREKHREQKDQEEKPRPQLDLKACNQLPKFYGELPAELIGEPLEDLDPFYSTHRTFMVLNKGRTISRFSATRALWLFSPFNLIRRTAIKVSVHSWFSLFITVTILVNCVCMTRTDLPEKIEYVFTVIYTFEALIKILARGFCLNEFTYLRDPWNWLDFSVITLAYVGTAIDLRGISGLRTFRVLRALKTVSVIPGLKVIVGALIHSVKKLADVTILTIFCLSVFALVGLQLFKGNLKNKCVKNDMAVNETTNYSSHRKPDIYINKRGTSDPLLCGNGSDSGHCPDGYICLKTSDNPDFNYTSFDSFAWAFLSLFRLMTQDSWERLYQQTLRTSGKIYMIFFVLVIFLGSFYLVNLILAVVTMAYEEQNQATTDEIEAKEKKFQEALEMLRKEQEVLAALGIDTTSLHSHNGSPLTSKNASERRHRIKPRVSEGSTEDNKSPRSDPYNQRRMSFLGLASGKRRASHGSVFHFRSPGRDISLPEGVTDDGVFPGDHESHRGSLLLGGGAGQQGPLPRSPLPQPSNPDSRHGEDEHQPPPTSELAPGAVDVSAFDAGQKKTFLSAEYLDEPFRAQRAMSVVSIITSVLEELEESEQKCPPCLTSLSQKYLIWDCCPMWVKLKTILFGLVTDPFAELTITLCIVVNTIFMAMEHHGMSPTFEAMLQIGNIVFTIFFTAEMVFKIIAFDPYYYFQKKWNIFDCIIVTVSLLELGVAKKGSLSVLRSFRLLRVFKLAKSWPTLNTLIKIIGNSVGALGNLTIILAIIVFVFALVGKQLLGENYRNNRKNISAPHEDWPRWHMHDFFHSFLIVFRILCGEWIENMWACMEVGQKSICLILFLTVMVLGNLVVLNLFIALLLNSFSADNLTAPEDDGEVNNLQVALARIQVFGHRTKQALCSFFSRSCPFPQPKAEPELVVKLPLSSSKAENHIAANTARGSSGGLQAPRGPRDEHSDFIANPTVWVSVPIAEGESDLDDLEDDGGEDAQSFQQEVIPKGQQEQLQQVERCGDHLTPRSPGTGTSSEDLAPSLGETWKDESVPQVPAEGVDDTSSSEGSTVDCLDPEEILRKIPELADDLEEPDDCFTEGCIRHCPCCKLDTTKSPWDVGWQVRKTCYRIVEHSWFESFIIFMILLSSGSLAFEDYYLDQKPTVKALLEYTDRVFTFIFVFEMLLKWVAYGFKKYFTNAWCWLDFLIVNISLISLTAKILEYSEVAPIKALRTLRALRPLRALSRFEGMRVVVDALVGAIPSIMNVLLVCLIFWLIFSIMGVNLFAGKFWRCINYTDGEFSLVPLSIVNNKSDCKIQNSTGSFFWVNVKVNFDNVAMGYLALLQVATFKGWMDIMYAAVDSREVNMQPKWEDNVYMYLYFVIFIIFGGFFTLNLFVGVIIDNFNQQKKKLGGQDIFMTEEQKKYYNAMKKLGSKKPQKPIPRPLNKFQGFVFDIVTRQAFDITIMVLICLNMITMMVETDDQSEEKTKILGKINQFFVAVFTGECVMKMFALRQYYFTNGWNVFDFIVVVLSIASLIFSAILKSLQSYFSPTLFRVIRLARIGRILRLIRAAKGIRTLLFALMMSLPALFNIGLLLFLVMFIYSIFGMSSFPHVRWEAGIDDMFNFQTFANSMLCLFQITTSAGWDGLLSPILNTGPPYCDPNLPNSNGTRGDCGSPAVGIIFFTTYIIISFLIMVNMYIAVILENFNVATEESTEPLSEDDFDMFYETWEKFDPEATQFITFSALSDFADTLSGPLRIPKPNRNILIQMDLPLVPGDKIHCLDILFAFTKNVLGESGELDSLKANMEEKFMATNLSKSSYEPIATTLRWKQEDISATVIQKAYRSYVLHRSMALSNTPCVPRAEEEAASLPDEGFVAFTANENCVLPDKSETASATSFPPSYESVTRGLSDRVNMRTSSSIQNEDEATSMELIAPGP
METHOD SUMMARY: Nav1.8 Qube automated patch-clamp assay
Format: cell-based
MEASUREMENT CONTEXT: human Nav1.8 stably expressed in HEK 293 cells; whole-cell voltage clamp, room temperature; resting or inactivated state not specified; read-out: IC50 values (nM) for Examples in the Nav1.8 Qube Assay
Listing of entries alongside the reported IC50.

| COMPOUND | ASSAYED SYSTEM | IC50 |
| --- | --- | --- |
| NS(=O)(=O)c1cc(NC(=O)c2cc(C(F)(F)F)cnc2N2CCC(F)(F)CC2)ccn1 | human Nav1.8 channels (Homo sapiens, UniProt Q9Y5Y9) | 53 nM |
| NS(=O)(=O)c1cc(NC(=O)c2cc(C3CC3)c(C(F)(F)F)nc2N2CCC(F)(F)CC2)ccn1 | human Nav1.8 channels (Homo sapiens, UniProt Q9Y5Y9) | 17 nM |
| Cc1nc(N2CCCCCC2)c(C(=O)Nc2cc[nH]c(=O)c2)c(C)c1Cl | human Nav1.8 channels (Homo sapiens, UniProt Q9Y5Y9) | 80 nM |
| CC1CN(c2nc(C(F)(F)F)c(Cl)cc2C(=O)Nc2ccnc(S(N)(=O)=O)c2)CCC1(F)F (single isomer, unassigned) [Example 165] | human Nav1.8 channels (Homo sapiens, UniProt Q9Y5Y9) | 2.1 nM |

---

Property: IC50; scope: individual compounds
ASSAYED SYSTEM: human Nav1.8 channels (Homo sapiens)
Construct: expressed in transfected cells
METHOD SUMMARY: Nav1.8 Qube automated patch-clamp assay
Type: cell-based
MEASUREMENT CONTEXT: human Nav1.8 stably expressed in HEK 293 cells; whole-cell voltage clamp, room temperature; resting or inactivated state not specified; read-out: IC50 values (nM) for Examples in the Nav1.8 Qube Assay
READOUT LABEL: IC50

| COMPOUND | READOUT LABEL | RESULT |
| --- | --- | --- |
| NS(=O)(=O)c1cc(NC(=O)c2cc(C#CC3CC3)c(C(F)(F)F)nc2N2CCC(F)(F)CC2)ccn1 | IC50 | 59 nM |
| COc1ccnc(N2CCC(F)(F)CC2)c1C(=O)Nc1ccnc(S(N)(=O)=O)c1 | IC50 | 1630 nM |
| NS(=O)(=O)c1cc(NC(=O)c2cc(C3CC3)nnc2N2CCCC(F)(F)CC2)ccn1 | IC50 | 441 nM |
| NS(=O)(=O)c1cc(NC(=O)c2cc(C(F)(F)F)cnc2N2CCCO[C@@H](C(F)(F)F)C2)ccn1 | IC50 | 696 nM |
| CC1CN(c2ncc(C(F)(F)F)cc2C(=O)Nc2ccnc(C(N)=O)c2)CCC1(F)F (single isomer, unassigned) [Example 158] | IC50 | 41 nM |
| O=C(Nc1nccc(O)n1)c1cc(C(F)(F)F)cnc1N1CCC(F)(F)CC1 | IC50 | 2190 nM |

---

Entries and their IC50 values follow.
ASSAYED SYSTEM: human Nav1.8 channels (Homo sapiens, UniProt Q9Y5Y9)
Construct: expressed in transfected cells
METHOD SUMMARY: Nav1.8 Qube automated patch-clamp assay
Format: cell-based
MEASUREMENT CONTEXT: human Nav1.8 stably expressed in HEK 293 cells; whole-cell voltage clamp, room temperature; resting or inactivated state not specified; read-out: IC50 values (nM) for Examples in the Nav1.8 Qube Assay

| COMPOUND | IC50 [nM] |
| --- | --- |
| NS(=O)(=O)c1cc(NC(=O)c2cc(C3CC3)c(OC(F)(F)F)nc2N2CCC(F)(F)CC2)ccn1 | 62 |
| N#Cc1cncc(NC(=O)c2cc(C(F)(F)F)cnc2N2CCCCCC2)c1 | 654 |
| CC1CC(F)(F)CCN1c1ncc(C(F)(F)F)cc1C(=O)Nc1ccnc(S(N)(=O)=O)c1 (single isomer, unassigned) [Example 73] | 225 |
| NS(=O)(=O)c1cc(NC(=O)c2cc(C(F)(F)F)cnc2N2CCC(Oc3cccc(C(F)(F)F)c3)CC2)ccn1 | 2370 |
| NS(=O)(=O)c1cc(NC(=O)c2cc(C3CC3)c(OCC(F)(F)F)nc2N2CCC(F)(F)CC2)ccn1 | 67 |
| COc1nc(N2CCCC(F)(F)CC2)c(C(=O)Nc2ccnc(S(=O)(=O)NC(C)(C)C)c2)cc1Cl | 341 |
| CS(=O)(=O)c1cc(NC(=O)c2cc(C(F)(F)F)cnc2N2C[C@@H]3[C@H](C2)C(F)(F)C3(F)F)ccn1 | 89 |
| Cc1nc(N2CCC(F)(F)CC2)c(C(=O)Nc2ccnc(S(N)(=O)=O)c2)cc1C(C)(C)C | 14 |
| CC1CN(c2ncc(C(F)(F)F)cc2C(=O)Nc2ccnc(S(N)(=O)=O)c2)CCC(C(F)(F)F)O1 (single isomer, unassigned) [Example 122] | 20 |
| Cc1nc(N2CCC3(CC2)CC3)c(C(=O)Nc2cc[nH]c(=O)c2)c(C)c1Cl | 12 |
| N#Cc1cc(NC(=O)c2cc(C(F)(F)F)cnc2N2CCCCCC2)ccn1 | 244 |
| NS(=O)(=O)c1cc(NC(=O)c2ccc(C3CCC3)nc2N2CCCC(F)(F)CC2)ccn1 | 2.1 |
| CS(=O)(=O)c1cc(NC(=O)c2cc(C(F)(F)F)cnc2N2CCCCCC2)ccn1 | 91 |
| O=C(Nc1ccc2ncc(Br)n2c1)c1cc(C(F)(F)F)cnc1N1CCCCCC1 | 5070 |
| NS(=O)(=O)c1cc(NC(=O)c2cc(C(F)(F)F)cnc2N2CCc3cccc(C(F)(F)F)c3C2)ccn1 | 275 |
| Cc1nc(N2CCCC(F)(F)CC2)c(C(=O)Nc2cnn(S(C)(=O)=O)c2)c(C)c1Cl | 4.3 |
| CC1CN(c2ncc(C(F)(F)F)cc2C(=O)Nc2ccnc(S(N)(=O)=O)c2)CC(C)C1O (centres unmarked) | 5080 |
| C[C@H]1CCN(c2ncc(C(F)(F)F)cc2C(=O)Nc2ccnc(S(N)(=O)=O)c2)CCO1 | 191 |
| NS(=O)(=O)c1cc(NC(=O)c2cc(N3CCCCC3)cnc2N2CCC(F)(F)CC2)ccn1 | 363 |
| CC1(C)CN(c2ncc(C(F)(F)F)cc2C(=O)Nc2ccnc(S(N)(=O)=O)c2)CCN1CC(F)(F)F | 223 |
| NS(=O)(=O)c1cc(NC(=O)c2cc(C(F)(F)F)cnc2N2CCOC(C(F)(F)F)CC2)ccn1 (single isomer, unassigned) [Example 119] | 30 |
| O=C(Nc1cc[nH]c(=O)c1)c1cc(Cl)c(C2CC2)nc1N1CCCC(F)(F)CC1 | 31 |
| CS(=O)(=O)c1cc(NC(=O)c2cc(C(F)(F)F)cnc2N2C[C@H]3CC[C@H]3C2)ccn1 | 155 |
